molecular target: Transient receptor potential cation channel subfamily V member 1 (Rattus norvegicus) (UniProt O35433); experiment: Partial agonist activity at TRPV1 in rat dorsal root ganglia neurons by 45Ca2+ uptake assay
Sequence (O35433 whole entry): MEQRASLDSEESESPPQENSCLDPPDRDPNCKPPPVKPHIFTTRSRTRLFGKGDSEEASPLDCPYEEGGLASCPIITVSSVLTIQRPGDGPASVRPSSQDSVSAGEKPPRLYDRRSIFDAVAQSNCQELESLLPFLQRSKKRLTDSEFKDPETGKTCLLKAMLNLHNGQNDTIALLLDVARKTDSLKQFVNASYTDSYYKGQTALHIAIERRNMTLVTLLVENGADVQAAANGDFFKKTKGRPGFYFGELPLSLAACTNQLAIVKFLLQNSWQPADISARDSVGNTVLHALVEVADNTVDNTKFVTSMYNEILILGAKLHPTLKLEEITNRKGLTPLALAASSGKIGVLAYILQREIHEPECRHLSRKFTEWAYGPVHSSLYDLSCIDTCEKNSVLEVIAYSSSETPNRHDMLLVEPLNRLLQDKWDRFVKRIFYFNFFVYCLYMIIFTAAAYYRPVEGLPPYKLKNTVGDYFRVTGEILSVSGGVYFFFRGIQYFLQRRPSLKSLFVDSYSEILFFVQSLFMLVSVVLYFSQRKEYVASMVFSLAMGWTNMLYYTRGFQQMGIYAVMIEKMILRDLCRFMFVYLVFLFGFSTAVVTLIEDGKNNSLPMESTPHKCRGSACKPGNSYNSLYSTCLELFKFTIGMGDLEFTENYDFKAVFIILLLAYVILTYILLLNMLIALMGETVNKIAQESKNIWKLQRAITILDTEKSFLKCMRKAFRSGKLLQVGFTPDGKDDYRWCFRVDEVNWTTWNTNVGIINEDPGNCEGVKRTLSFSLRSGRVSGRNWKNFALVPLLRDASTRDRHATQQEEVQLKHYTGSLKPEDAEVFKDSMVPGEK
Calls of active or inactive are those of the source. The calls are words filed in the database; no cut-off is given here.
Measurement name: Activity

Smiles str	Recorded measurement
CCOC(=O)[C@@H]1[C@H]2COc3ccc(OC)cc3[C@@H]2N[C@]1(C)C(=O)Nc1cc(C)ccc1C(=O)OC	Active
CCOC(=O)[C@@H]1[C@H]2COc3c(F)cccc3[C@@H]2N[C@]1(C)C(=O)Nc1cc(C)ccc1C(=O)OC	Active
CCOC(=O)[C@@H]1[C@H]2COc3ccc(F)cc3[C@@H]2N[C@]1(C)C(=O)Nc1cc(C)ccc1C(=O)OC	Active
CCOC(=O)[C@@H]1[C@H]2COc3ccc(Cl)cc3[C@@H]2N[C@]1(C)C(=O)Nc1cc(C)ccc1C(=O)OC	Active
